Tested on: KM20L2 (colon)
Test: Sulforhodamine B human cancer cell growth inhibition, KM20L2
Type: cell-based
Conditions: Homo sapiens, KM-20L2, KM20L2 colon cell line, compounds in DMSO, 48 h, read-out: Gl50 Growth Inhibition, KM20L2
Method: Cancer Cell Line Procedures. Inhibition of human cancer cell growth was assessed using the standard sulforhodamine B assay of the U.S. National Cancer Institute, as previously described.^15 To begin, cells in a 5% fetal bovine serum/RPMI1640 medium were inoculated in 96-well plates and incubated for 24 h. Next, serial dilutions of the compounds were added. After 48 h, the plates were fixed with trichloroacetic acid, stained with sulforhodamine B, and read with an automated microplate reader.
OUTCOME MEASURE: IC50

Recorded IC50, per entry:
[
  {
    "COMPOUND": "C=C(C)[C@@H]1CC[C@]2(CNC(=O)[C@H](C)[C@@H](OC)C3CCCN3C(=O)C[C@@H](OC)[C@H]([C@@H](C)CC)N(C)C(=O)C(NC(=O)[C@H](C(C)C)N(C)C)C(C)C)CC[C@]3(C)C(CCC4[C@@]5(C)CC[C@H](O)C(C)(C)C5CC[C@]43C)C12 (stereo partly shown)",
    "TARGET SYSTEM": "KM20L2 (colon)",
    "IC50": "0.31 µg/mL"
  },
  {
    "COMPOUND": "CC[C@H](C)C([C@@H](CC(=O)N1CCCC1[C@H](OC)[C@@H](C)C(=O)NCCN1C(=O)[C@]23CCC(C)(C)C1C2[C@H]1CCC2[C@@]4(C)CC[C@H](O)C(C)(C)C4CC[C@@]2(C)[C@]1(C)CC3)OC)N(C)C(=O)[C@@H](NC(=O)[C@H](C(C)C)N(C)C)C(C)C (stereo partly shown) [Compound 18b]",
    "TARGET SYSTEM": "KM20L2 (colon)",
    "IC50": "0.22 µg/mL"
  },
  {
    "COMPOUND": "C=C(C)[C@@H]1CC[C@]2(COC(C)=O)CC[C@]3(C)C(CCC4[C@@]5(C)CC[C@H](NC(=O)[C@H](C)[C@@H](OC)C6CCCN6C(=O)OC(C)(C)C)C(C)(C)[C@@H]5CC[C@]43C)[C@@H]12 (stereo partly shown)",
    "TARGET SYSTEM": "KM20L2 (colon)",
    "IC50": "> 10 µg/mL"
  }
]

// moving on: another record for IC50
If you can, please state the reported IC50 value of C=C(C)[C@@H]1CC[C@]2(CNC(=O)[C@H](C)[C@@H](OC)C3CCCN3C(=O)OC(C)(C)C)CC[C@]3(C)C(CCC4[C@@]5(C)CC[C@H](OC(C)=O)C(C)(C)C5CC[C@]43C)C12 (stereo partly shown) .
> 10 µg/mL

----------
The entries below come with measured IC50 values attached.
Tested on: BXPC-3 (pancreas)
Experiment: Sulforhodamine B human cancer cell growth inhibition, BXPC-3
Type: cell-based
Settings: Homo sapiens, BXPC-3 pancreas cell line, compounds in DMSO, 48 h, read-out: Gl50 Growth Inhibition, XPC-3
Procedure: Cancer Cell Line Procedures. Inhibition of human cancer cell growth was assessed using the standard sulforhodamine B assay of the U.S. National Cancer Institute, as previously described.^15 To begin, cells in a 5% fetal bovine serum/RPMI1640 medium were inoculated in 96-well plates and incubated for 24 h. Next, serial dilutions of the compounds were added. After 48 h, the plates were fixed with trichloroacetic acid, stained with sulforhodamine B, and read with an automated microplate reader.

Recorded IC50, per entry:
[
  {
    "COMPOUND": "C=C(C)[C@@H]1CC[C@]2(CO)CC[C@]3(C)[C@H](CC[C@@H]4[C@@]5(C)CC[C@H](O)C(C)(C)[C@@H]5CC[C@]43C)[C@@H]12 [Betulin, betulin, reference compound]",
    "IC50": "9.3 µg/mL"
  },
  {
    "COMPOUND": "C=C(C)[C@@H]1CC[C@]2(COC(C)=O)CC[C@]3(C)C(CCC4[C@@]5(C)CC[C@H](NC(=O)[C@H](C)[C@@H](OC)C6CCCN6C(=O)OC(C)(C)C)C(C)(C)[C@@H]5CC[C@]43C)[C@@H]12 (stereo partly drawn) [Compound 10]",
    "IC50": "> 10 µg/mL"
  }
]

// moving on: another record for IC50
If you can, please state the reported IC50 value of C=C(CN=[N+]=[N-])[C@@H]1CC[C@]2(COC(C)=O)CC[C@]3(C)C(CCC4[C@@]5(C)CC[C@H](OC(C)=O)C(C)(C)[C@@H]5CC[C@]43C)[C@@H]12 (stereo partly drawn) [Compound 13, 3,28-Di-O-acetyl-30-azido-betulin] .
> 10 µg/mL
